- target: T1, tissue plasminogen activator (tPA) (UniProt P00750 36-562)
- T1 construct: also called Alteplase
- T1 sequence (P00750 36-562 limits assumed): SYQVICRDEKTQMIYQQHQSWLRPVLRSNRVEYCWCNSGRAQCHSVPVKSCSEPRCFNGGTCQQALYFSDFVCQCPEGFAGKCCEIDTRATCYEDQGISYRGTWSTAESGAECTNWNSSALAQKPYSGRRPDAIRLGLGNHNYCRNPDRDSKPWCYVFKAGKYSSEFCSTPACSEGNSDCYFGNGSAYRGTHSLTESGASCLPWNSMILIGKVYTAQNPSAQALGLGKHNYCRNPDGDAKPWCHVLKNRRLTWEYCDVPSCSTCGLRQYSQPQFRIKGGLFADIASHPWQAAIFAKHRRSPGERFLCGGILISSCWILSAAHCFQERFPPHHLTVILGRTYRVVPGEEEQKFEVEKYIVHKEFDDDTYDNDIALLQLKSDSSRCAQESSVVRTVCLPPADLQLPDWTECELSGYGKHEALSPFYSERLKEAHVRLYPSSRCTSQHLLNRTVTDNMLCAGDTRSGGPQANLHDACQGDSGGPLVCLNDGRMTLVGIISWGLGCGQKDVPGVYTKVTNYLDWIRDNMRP
- assay_remarks: SPR (Biacore T100), tPA amine-coupled to CM5, KD1-Y11T/L17R-KT as analyte, 1:1 model
value_kind: Kd (nM)
Please state the figure in nM; there is no need to write the unit.

Can you share its Kd? I mean this binder: KD1-Y11T/L17R-KT (Pichia) (designed binder, 60-residue double mutant without tag; also called KD1DM; P. pastoris expressed KD1-Y11T/L17R-KT) NAEICLLPLDTGPCRARLLRYYYDRYTQSCRQFLYGGCEGNANNFYTWEACDDACWRIEK
35.4
